Where do these numbers come from? They come from paper PMC5563285.

Positions of bridges follow the written chain, without caps; N, C: chain ends. Residues, ends and D or L forms follow the SMILES beside them.
Hi! I'm sharing some pKd results obtained with Ac-AChBP (acetylcholine binding protein) (Aplysia californica, UniProt Q8WSF8).
Sequence (Q8WSF8 20-236): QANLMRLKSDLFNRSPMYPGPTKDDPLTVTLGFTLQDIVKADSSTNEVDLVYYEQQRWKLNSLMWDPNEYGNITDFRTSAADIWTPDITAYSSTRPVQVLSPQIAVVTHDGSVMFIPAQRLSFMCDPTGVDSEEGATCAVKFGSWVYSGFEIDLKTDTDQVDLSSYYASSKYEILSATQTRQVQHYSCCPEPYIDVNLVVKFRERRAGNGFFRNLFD
Numbers only, as −log10 of the molar value.

Look over these answered cases.
| COMPOUND | PROPERTY_MEASURED | REPORTED_MEASUREMENT |
| --- | --- | --- |
| CC[C@H](C)[C@@H]1NC(=O)[C@H](CCC(=O)O)NC(=O)[C@@H]2CCCN2C(=O)[C@H](Cc2cnc[nH]2)NC(=O)[C@H](C)NC(=O)[C@H](C(C)C)NC(=O)[C@H](CC(N)=O)NC(=O)[C@@H]2CSSC[C@H](NC(=O)CN)C(=O)N[C@@H](CSSC[C@@H](C(N)=O)NC1=O)C(=O)N[C@@H](CO)C(=O)N[C@@H](Cc1cnc[nH]1)C(=O)N1CCC[C@H]1C(=O)N[C@@H](C)C(=O)N2 [LvIA (D11A)] (H-GCCSHPACNVAHPEIC-NH2; disulfide 2-8, 3-16) | pKd | 7.76 |
| CC[C@H](C)[C@@H]1NC(=O)[C@H](CCC(=O)O)NC(=O)[C@@H]2CCCN2C(=O)[C@H](Cc2cnc[nH]2)NC(=O)[C@H](CC(=O)O)NC(=O)[C@H](C(C)C)NC(=O)[C@H](CC(N)=O)NC(=O)[C@@H]2CSSC[C@H](NC(=O)CN)C(=O)N[C@@H](CSSC[C@@H](C(N)=O)NC1=O)C(=O)N[C@@H](CO)C(=O)N[C@@H](Cc1cnc[nH]1)C(=O)N1CCC[C@H]1C(=O)N[C@@H](C)C(=O)N2 | pKd | 6.88 |

Continue with the next compound.
Exam item: State its pKd: CC[C@H](C)[C@@H]1NC(=O)[C@H](CCC(=O)O)NC(=O)[C@@H]2CCCN2C(=O)[C@H](Cc2cnc[nH]2)NC(=O)[C@H](CC(=O)O)NC(=O)[C@H](C(C)C)NC(=O)[C@H](C)NC(=O)[C@@H]2CSSC[C@H](NC(=O)CN)C(=O)N[C@@H](CSSC[C@@H](C(N)=O)NC1=O)C(=O)N[C@@H](CO)C(=O)N[C@@H](Cc1cnc[nH]1)C(=O)N1CCC[C@H]1C(=O)N[C@@H](C)C(=O)N2 [LvIA (N9A)] (H-GCCSHPACAVDHPEIC-NH2; disulfide 2-8, 3-16)
Marked response: 7.08
